Each recorded value in this set is attributed to the supplement of paper PMC10567573.

B1: LARP4 (parent)
chain: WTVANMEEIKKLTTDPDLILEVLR

Variants of: B1
experimental-details: protein stability index of a GFP-peptide fusion (GPS, HEK-293T) (PSI 1-6); higher = more stable;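 further: lentivirally expressed fusions sorted by FACS into six bins by GFP to DsRed ratio, PSI derived from sequencing read proportions per bin multiplied by bin number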
stated-conditions: c terminus: a fixed tail appended
property: protein stability index
Could you respond with only the numeric value?

Here's what some known entries look like.
E21C 1.69
N5S 1.66
E8R 2.37
E21Q 1.6
D15C 1.53
T13I 2.04

INPUT: Request the reported protein stability index associated with D17Q
OUTPUT: 2.32

INPUT: Please look up its protein stability index: P16I
OUTPUT: 1.67

INPUT: Request the reported protein stability index associated with L23N
OUTPUT: 3.56

INPUT: Could you share which protein stability index value was measured for D15A ?
OUTPUT: 1.69

INPUT: Which protein stability index is reported for this variant? W1Q
OUTPUT: 2.91

INPUT: # get_value(readout='protein stability index', item= K10W )
OUTPUT: 2.68

INPUT: Consider the variant L20T and give its measured protein stability index.
OUTPUT: 2.52

INPUT: Value lookup for protein stability index; key = V22Y
OUTPUT: 2.64

INPUT: # protein stability index lookup, item V22Q
OUTPUT: 3.18

INPUT: Value lookup for protein stability index; key = L23T
OUTPUT: 3.08

INPUT: # lookup: protein stability index of I19H
OUTPUT: 2.82

INPUT: Any idea what protein stability index was measured for M6A ?
OUTPUT: 1.33

INPUT: Given the entry D15W , report its measured protein stability index.
OUTPUT: 1.89
